target: Histone deacetylase 2 (Homo sapiens); assay: Inhibition of recombinant full length C-terminal GST tagged human HDAC2 expressed in baculovirus infected Sf9 insect cells using Ac-Leu-Gly-Lys(Ac)-AMC as substrate preincubated for 5 mins followed by substrate addition and further incubated for 30 mins by fluorescence based microtiter plate reader assay
Sequence (Q92769 whole entry): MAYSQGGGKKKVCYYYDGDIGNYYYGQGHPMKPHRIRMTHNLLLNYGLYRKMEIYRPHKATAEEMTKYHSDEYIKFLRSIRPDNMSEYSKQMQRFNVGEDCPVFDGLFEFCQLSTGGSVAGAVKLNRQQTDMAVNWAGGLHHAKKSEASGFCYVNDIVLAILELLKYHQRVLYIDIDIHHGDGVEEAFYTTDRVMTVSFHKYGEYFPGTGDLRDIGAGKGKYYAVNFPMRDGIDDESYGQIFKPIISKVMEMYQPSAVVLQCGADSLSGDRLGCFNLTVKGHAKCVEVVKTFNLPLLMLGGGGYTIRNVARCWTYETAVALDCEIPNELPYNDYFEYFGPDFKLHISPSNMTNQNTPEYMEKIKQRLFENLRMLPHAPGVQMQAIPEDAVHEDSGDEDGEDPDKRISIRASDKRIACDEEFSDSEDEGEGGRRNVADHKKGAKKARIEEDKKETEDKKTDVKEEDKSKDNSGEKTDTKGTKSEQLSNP
readout: IC50

[Q] Determine from records and report IC50 for CN1c2ccc(F)cc2C(=O)N2CCc3c([nH]c4ccc(OCc5ccc(/C=C/C(=O)Nc6ccccc6N)cc5)cc34)C21 (configuration not stated)
[A] 42 µM

[Q] Determine from records and report IC50 for CN1c2ccc(F)cc2C(=O)N2CCc3c([nH]c4ccc(OCc5ccc(/C=C/C(=O)NO)cc5)cc34)C21 (configuration not stated)
[A] 0.14 µM

* * *

molecular target: Protein deacetylase HDAC6 (Homo sapiens, UniProt Q9UBN7); assay: Inhibition of full-length recombinant N-terminal GST-tagged human HDAC6 expressed in baculovirus infected Sf9 cells using Ac-Leu-Gly-Lys(Ac)-AMC as substrate preincubated for 5 mins followed by substrate addition and further incubated for 30 mins by fluorescence based microtiter plate reader assay
Sequence (Q9UBN7 whole entry): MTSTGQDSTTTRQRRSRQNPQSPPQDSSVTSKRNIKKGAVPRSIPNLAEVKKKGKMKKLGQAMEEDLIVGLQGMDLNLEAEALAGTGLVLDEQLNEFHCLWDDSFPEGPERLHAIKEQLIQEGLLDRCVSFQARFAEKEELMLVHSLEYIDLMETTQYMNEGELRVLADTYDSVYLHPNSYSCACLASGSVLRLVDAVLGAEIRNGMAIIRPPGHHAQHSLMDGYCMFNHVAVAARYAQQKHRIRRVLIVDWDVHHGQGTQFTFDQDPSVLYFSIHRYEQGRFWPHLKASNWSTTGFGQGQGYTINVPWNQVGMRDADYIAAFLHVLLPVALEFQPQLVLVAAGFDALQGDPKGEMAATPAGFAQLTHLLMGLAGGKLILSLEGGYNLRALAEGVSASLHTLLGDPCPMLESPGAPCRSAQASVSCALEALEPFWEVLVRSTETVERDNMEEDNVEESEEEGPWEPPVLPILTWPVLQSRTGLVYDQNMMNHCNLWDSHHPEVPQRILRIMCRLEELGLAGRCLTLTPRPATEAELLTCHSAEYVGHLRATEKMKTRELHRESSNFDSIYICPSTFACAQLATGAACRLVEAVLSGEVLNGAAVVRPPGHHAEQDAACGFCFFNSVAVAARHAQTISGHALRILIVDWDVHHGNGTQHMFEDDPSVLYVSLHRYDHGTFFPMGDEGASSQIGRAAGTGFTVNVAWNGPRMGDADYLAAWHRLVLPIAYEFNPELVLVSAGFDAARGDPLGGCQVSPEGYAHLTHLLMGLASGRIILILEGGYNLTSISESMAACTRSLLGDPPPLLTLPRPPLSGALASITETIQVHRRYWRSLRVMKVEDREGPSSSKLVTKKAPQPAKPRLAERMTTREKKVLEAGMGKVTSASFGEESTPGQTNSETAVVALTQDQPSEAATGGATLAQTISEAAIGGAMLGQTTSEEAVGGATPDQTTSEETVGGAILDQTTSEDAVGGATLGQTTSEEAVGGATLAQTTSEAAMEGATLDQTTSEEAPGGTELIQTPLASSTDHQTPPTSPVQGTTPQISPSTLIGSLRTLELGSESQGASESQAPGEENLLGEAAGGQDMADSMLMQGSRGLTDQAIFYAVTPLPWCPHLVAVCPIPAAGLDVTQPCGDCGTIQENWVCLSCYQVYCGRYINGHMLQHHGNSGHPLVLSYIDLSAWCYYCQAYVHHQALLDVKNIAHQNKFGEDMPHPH
Provide the reported pIC50 of each item.
On this scale, pIC50 is minus log10 of a concentration expressed in M (mol/L).

[Q] Determine from records and report pIC50 for CN1c2ccc(F)cc2C(=O)N2CCc3c([nH]c4ccc(OCc5ccc(/C=C/C(=O)Nc6ccccc6N)cc5)cc34)C21 (configuration not stated)
[A] 4.96

[Q] Determine from records and report pIC50 for CN1c2ccc(F)cc2C(=O)N2CCc3c([nH]c4ccc(OCc5ccc(/C=C/C(=O)NO)cc5)cc34)C21 (configuration not stated)
[A] 7.05

* * *

tested on: MCF7; experiment: Antiproliferative activity against human MCF7 cells assessed as cell growth inhibition incubated for 8 hrs by CCK8 assay; format: functional, cell-based; settings: MCF7, 8 h
Provide the reported IC50 of each item.
Reply numerically in nM, unit not repeated.

[Q] Determine from records and report IC50 for CN1c2ccc(F)cc2C(=O)N2CCc3c([nH]c4ccc(OCc5ccccc5C(=O)Nc5ccccc5N)cc34)C21 (configuration not stated)
[A] 420

[Q] Determine from records and report IC50 for CN1c2ccc(F)cc2C(=O)N2CCc3c([nH]c4ccc(OCc5ccc(C(=O)NO)cc5)cc34)C21 (configuration not stated)
[A] 160

[Q] Determine from records and report IC50 for CN1c2ccc(F)cc2C(=O)N2CCc3c([nH]c4ccc(OCCCC(=O)Nc5ccccc5N)cc34)C21 (configuration not stated)
[A] 52000

[Q] Determine from records and report IC50 for `CC[C@@]1(O)C(=O)OCc2c1cc1n(c2=O)Cc2cc3c(CN(C)C)c(O)ccc3nc2-1`
[A] 140

[Q] Determine from records and report IC50 for CN1c2ccc(F)cc2C(=O)N2CCc3c([nH]c4ccc(OCc5ccccc5C(=O)NO)cc34)C21 (configuration not stated)
[A] 800

[Q] Determine from records and report IC50 for CN1c2ccc(F)cc2C(=O)N2CCc3c([nH]c4ccc(OCc5ccc(C(=O)Nc6ccccc6N)cc5)cc34)C21 (configuration not stated)
[A] 1910

[Q] Determine from records and report IC50 for CN1c2ccc(F)cc2C(=O)N2CCc3c([nH]c4ccc(OCCCCCCC(=O)Nc5ccccc5N)cc34)C21 (configuration not stated)
[A] 830

[Q] Determine from records and report IC50 for CN1c2ccc(F)cc2C(=O)N2CCc3c([nH]c4ccc(OCCCCC(=O)NO)cc34)C21 (configuration not stated)
[A] 1560

[Q] Determine from records and report IC50 for CN1c2ccc(F)cc2C(=O)N2CCc3c([nH]c4ccc(O)cc34)C21 (configuration not stated)
[A] 760

[Q] Determine from records and report IC50 for CN1c2ccc(F)cc2C(=O)N2CCc3c([nH]c4ccc(OCCCCCCC(=O)NO)cc34)C21 (configuration not stated)
[A] 210

All figures here come from ChEMBL document CHEMBL5046291.
